Molecular target: M184V HIV-1 RT (Human immunodeficiency virus type 1 group M subtype B, UniProt P03366, M783V/Q857C)
Construct: HIV-1 RT p66 and p51 subunits were expressed and purified as described previously
Assay: Pre-steady-state single-turnover kinetics of nucleotide incorporation by M184V HIV-1 RT
Consider the following compounds and their measured Kd readings.

- compound: "Nc1nc(=O)n([C@H]2CS[C@@H](COP(=O)(O)OP(=O)(O)OP(=O)(O)O)O2)cc1F [(+)-FTC-TP]"
  unitAbbrev: "µM"
  Kd: 1.8
- compound: "Nc1ccn([C@H]2C[C@H](O)[C@@H](COP(=O)(O)OP(=O)(O)OP(=O)(O)O)O2)c(=O)n1 [dCTP, deoxycytidine triphosphate]"
  unitAbbrev: "µM"
  Kd: 8.9
- compound: "Nc1nc(=O)n([C@@H]2CS[C@H](COP(=O)(O)OP(=O)(O)OP(=O)(O)O)O2)cc1F [(−)-FTC-TP]"
  unitAbbrev: "µM"
  Kd: 28
- compound: "Nc1ccn([C@H]2CS[C@@H](COP(=O)(O)OP(=O)(O)OP(=O)(O)O)O2)c(=O)n1 [(+)-3TC-TP]"
  unitAbbrev: "µM"
  Kd: 5.4
- compound: "Nc1ccn([C@@H]2CS[C@H](COP(=O)(O)OP(=O)(O)OP(=O)(O)O)O2)c(=O)n1 [(−)-3TC-TP]"
  unitAbbrev: "µM"
  Kd: 53
